- protocol_summary: Cytotoxicity against African green monkey Vero cells after 48 hrs by resazurin dye-based spectrophotometric analysis
- Format: cell-based
- condition: chlorocebus sabaeus
Each entry below carries its reported CC50 at 48 h.
Unit µg/mL implied. Number only.

| molecule_smiles | observed_result |
| --- | --- |
| CC(=O)CCCCCCCCCC[C@H]1CC[C@@H](O)[C@@H](C)N1 | 249 |

Let us examine a further case.
Ask | // Input: CC(=O)CCCCCCCCCCCC[C@H]1CC[C@@H](O)[C@@H](C)N1 . Output its CC50 at 48 h only.
Reply | 66.7

---

Each entry below carries its reported log10 selectivity index.
- protocol_summary: Log10 selectivity index, ratio of CC50 for African green monkey Vero cells to IC50 for Leishmania amazonensis PH8 promastigotes
- condition: Vero cells versus Leishmania amazonensis PH8 promastigotes
Answer using only a numeral; do not append any unit.

| molecule_smiles | log10 selectivity index |
| --- | --- |
| CC(=O)CCCCCCCCCC[C@H]1CC[C@@H](O)[C@@H](C)N1 | 0.99 |

Let us examine a further case.
Ask | // Input: CC(=O)CCCCCCCCCCCC[C@H]1CC[C@@H](O)[C@@H](C)N1 . Output its log10 selectivity index only.
Reply | 0.62

---

Each entry below carries its reported IC50.
- Test system: Leishmania amazonensis
- protocol_summary: Leishmanicidal activity against Leishmania amazonensis PH8 promastigotes after 48 hrs by spectrophotometric analysis
- Assay type: functional, organism-based
- condition: PH8, 48 h
Unit mg/L implied. Number only.

| molecule | IC50 (mg/L) |
| --- | --- |
| CC(=O)CCCCCCCCCCCC[C@H]1CC[C@@H](O)[C@@H](C)N1 | 15.8 |
| CC(=O)CCCCCCCCCC[C@H]1CC[C@@H](O)[C@@H](C)N1 [CASSINE] | 25.2 |

Let us examine a further case.
Ask | // Input: C[C@@H]1[C@H](O)[C@@H](C)/C=C/C=C/C=C/C=C/C=C/C=C/C=C/[C@H](O[C@@H]2O[C@H](C)[C@@H](O)[C@H](N)[C@@H]2O)C[C@@H]2O[C@](O)(C[C@@H](O)C[C@@H](O)[C@H](O)CC[C@@H](O)C[C@@H](O)CC(=O)O[C@H]1C)C[C@H](O)[C@H]2C(=O)O [AMPHOTERICIN B] . Output its IC50 only.
Reply | 0.29
